Parameter IC50, tested on HPTPβ (Homo sapiens), listed per item.
Sequence (P23467 23-1997): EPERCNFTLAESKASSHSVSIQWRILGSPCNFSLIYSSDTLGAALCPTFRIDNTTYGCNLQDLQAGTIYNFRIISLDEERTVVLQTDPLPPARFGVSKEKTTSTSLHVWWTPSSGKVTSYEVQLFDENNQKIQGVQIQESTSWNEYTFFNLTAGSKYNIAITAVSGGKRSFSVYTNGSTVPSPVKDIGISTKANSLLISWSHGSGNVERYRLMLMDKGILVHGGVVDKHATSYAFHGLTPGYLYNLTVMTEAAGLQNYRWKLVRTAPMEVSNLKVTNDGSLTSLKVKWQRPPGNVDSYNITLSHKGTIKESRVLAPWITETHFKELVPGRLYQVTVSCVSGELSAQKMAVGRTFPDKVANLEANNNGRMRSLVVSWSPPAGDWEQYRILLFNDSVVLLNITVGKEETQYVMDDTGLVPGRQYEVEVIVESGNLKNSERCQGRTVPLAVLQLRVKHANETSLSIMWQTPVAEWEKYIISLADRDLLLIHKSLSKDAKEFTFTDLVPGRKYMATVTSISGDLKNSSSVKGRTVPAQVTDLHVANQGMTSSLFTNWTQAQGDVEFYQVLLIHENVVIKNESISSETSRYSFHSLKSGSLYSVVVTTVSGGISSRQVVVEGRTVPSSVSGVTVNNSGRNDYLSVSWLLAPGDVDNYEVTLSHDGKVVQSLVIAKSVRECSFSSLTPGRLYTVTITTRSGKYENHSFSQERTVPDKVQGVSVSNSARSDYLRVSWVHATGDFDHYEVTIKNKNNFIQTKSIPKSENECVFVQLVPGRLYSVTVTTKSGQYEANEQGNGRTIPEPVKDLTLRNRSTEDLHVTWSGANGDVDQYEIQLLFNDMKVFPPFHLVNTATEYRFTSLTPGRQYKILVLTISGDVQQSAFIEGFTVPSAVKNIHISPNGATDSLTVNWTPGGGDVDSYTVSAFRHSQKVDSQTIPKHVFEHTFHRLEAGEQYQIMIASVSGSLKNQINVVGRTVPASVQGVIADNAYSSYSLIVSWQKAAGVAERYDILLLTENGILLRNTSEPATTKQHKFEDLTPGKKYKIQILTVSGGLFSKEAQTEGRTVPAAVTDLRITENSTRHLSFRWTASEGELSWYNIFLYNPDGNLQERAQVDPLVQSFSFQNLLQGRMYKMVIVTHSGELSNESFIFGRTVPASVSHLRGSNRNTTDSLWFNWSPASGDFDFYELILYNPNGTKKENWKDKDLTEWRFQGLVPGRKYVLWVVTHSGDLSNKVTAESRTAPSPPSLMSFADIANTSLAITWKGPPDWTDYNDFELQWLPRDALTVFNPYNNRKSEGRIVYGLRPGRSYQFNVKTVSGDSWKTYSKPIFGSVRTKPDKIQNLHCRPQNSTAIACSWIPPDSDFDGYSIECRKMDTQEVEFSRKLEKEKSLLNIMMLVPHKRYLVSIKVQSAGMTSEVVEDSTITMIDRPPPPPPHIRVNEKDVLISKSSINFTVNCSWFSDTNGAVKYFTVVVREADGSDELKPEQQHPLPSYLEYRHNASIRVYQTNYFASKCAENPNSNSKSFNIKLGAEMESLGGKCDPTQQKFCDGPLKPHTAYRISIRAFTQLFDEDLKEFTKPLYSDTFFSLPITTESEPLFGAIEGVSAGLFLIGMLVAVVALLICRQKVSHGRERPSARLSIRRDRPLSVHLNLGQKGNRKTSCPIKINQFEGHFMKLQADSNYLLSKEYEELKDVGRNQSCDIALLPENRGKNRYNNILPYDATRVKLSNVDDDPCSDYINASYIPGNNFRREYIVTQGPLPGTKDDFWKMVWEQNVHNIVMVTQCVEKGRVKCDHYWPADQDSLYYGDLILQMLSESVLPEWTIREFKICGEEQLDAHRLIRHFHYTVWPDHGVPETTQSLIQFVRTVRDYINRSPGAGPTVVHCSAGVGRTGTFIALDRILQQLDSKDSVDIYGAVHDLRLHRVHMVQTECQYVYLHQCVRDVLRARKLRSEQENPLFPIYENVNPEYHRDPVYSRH
observation.type: IC50 (nM)

Examples from the recorded data:
CCOC(=O)c1csc([C@H](Cc2ccc(NS(=O)(=O)O)cc2)NC(=O)C(C)(C)C)n1 ... 584
CC(C)(C)OC(=O)N[C@@H](Cc1ccc(NS(=O)(=O)O)cc1)c1nc(-c2cccc(C(F)(F)F)c2)cs1 ... 253
CCCc1csc([C@H](Cc2ccc(NS(=O)(=O)O)cc2)NC(=O)[C@H](Cc2ccccc2)NC(=O)OC)n1 ... 0.1
CCc1csc([C@H](Cc2ccc(NS(=O)(=O)O)cc2)NC(=O)C(C)(C)C)n1 ... 85

[I] Cc1nc([C@H](Cc2ccc(NS(=O)(=O)O)cc2)NC(=O)OC(C)(C)C)cs1
[II] CCc1csc([C@H](Cc2ccc(NS(=O)(=O)O)cc2)NC(=O)[C@H](Cc2ccccc2)NC(C)=O)n1
Recorded IC50 values differ for I and II ; which one is higher? // caller expects the label of the chosen entry I
(I: 33 nM, II: 1 nM)

[A] COC(=O)N[C@@H](Cc1ccccc1)C(=O)N[C@@H](Cc1ccc(NS(=O)(=O)O)cc1)c1nc(CCC(F)(F)F)cs1
[B] COC(=O)N[C@@H](Cc1ccccc1)C(=O)N[C@@H](Cc1ccc(NS(=O)(=O)O)cc1)c1nc(CC(F)(F)F)cs1
For this pair, A and B , which shows a numerically higher IC50? Bench note: the answer is the label of the chosen record. B

###

Record set of IC50 for target or system PTP1B (Homo sapiens).
observation.type: IC50 (µM)

COC(=O)N[C@@H](Cc1ccccc1)C(=O)N[C@@H](Cc1ccc(NS(=O)(=O)O)cc1)c1csc(-c2ccccc2)n1 ... 0.508
CCc1nc([C@H](Cc2ccc(NS(=O)(=O)O)cc2)NC(=O)[C@H](Cc2ccccc2)NC(=O)OC)sc1-c1ccccc1 ... 0.39
CCc1csc([C@H](Cc2ccc(NS(=O)(=O)O)cc2)NC(=O)[C@@H](NC(=O)OC)C(C)C)n1 ... 1.03
COC(=O)N[C@@H](Cc1ccccc1)C(=O)N[C@@H](Cc1ccc(NS(=O)(=O)O)cc1)c1nc(C)c(C)s1 ... 0.31
CC(C)(C)OC(=O)N[C@@H](Cc1ccccc1)C(=O)N[C@@H](Cc1ccc(NS(=O)(=O)O)cc1)c1csc(-c2ccccc2)n1 ... 0.905

[P] CC(C)(C)OC(=O)N[C@@H](Cc1ccc(NS(=O)(=O)O)cc1)c1ncc(-c2ccccc2)s1
[Q] COC(=O)N[C@@H](Cc1ccccc1)C(=O)N[C@@H](Cc1ccc(NS(=O)(=O)O)cc1)c1ncc(-c2ccccc2)s1
[R] CC(C)(C)C(=O)N[C@@H](Cc1ccc(NS(=O)(=O)O)cc1)c1nc(-c2ccc(-c3ccccc3)cc2)cs1
[S] CC(C)(C)C(=O)N[C@@H](Cc1ccc(NS(=O)(=O)O)cc1)c1nc(CO)cs1
[T] CCc1csc([C@H](Cc2ccc(NS(=O)(=O)O)cc2)NC(=O)[C@H](Cc2ccccc2)NC(=O)OC)n1
Please list these compounds in decreasing order of IC50. Please write the labels in the order that was asked for. S, R, P, Q, T

###

Let's go through some recorded IC50 values for HPTPβ (Homo sapiens) together.
observation.type: IC50 (nM)

COC(=O)N[C@@H](Cc1ccccc1)C(=O)N[C@@H](Cc1ccc(NS(=O)(=O)O)cc1)c1csc(CS(=O)(=O)C(C)(C)C)n1 ... 2

[A] CCc1nc([C@H](Cc2ccc(NS(=O)(=O)O)cc2)NC(=O)[C@H](Cc2ccccc2)NC(=O)OC)cs1
[B] CC(C)(C)C(=O)N[C@@H](Cc1ccc(NS(=O)(=O)O)cc1)c1nc(Cc2ccccc2)cs1
[C] CC(=O)N[C@@H](Cc1ccccc1)C(=O)N[C@@H](Cc1ccc(NS(=O)(=O)O)cc1)c1nc(C(C)(C)C)cs1
Sort (3 compounds) by IC50: min first. Please list each label once, in the requested order. A, C, B

[P] CCc1csc([C@H](Cc2ccc(NS(=O)(=O)O)cc2)NC(=O)[C@H](CC(C)C)NC(=O)OC(C)(C)C)n1
[Q] COC(=O)N[C@@H](Cc1ccccc1)C(=O)N[C@@H](Cc1ccc(NS(=O)(=O)O)cc1)c1csc(C2CC2)n1
Which value of IC50 is numerically greater: that of P or that of Q ? State the label of the item chosen. P

[A] COc1ccc(-c2csc([C@H](Cc3ccc(NS(=O)(=O)O)cc3)NC(=O)C(C)(C)C)n2)c(OC)c1
[B] CCOC(=O)c1csc([C@H](Cc2ccc(NS(=O)(=O)O)cc2)NC(=O)[C@H](Cc2ccccc2)NC(=O)OC)n1
Hi! Which is lower in terms of IC50, the first one A or the second one B ? Answer = label. B
(B: 0.2 nM, A: 86 nM)

###

# assay.target: PTP1B (Homo sapiens, UniProt P18031)
# Sequence (P18031 1-435): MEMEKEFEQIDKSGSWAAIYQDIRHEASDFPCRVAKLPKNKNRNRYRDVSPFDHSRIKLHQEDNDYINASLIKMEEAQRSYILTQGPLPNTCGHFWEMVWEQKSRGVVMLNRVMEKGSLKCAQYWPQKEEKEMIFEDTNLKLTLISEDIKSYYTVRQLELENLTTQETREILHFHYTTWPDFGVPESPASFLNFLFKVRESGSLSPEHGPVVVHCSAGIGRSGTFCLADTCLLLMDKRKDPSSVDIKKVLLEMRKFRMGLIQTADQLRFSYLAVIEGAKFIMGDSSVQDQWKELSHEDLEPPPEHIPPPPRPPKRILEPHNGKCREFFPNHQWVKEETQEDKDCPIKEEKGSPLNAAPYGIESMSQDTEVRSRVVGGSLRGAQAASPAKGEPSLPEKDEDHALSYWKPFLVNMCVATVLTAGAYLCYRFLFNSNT
observation.type: IC50 (µM)

Solved cases (3 shown):
CC(C)(C)C(=O)N[C@@H](Cc1ccc(NS(=O)(=O)O)cc1)c1nc(-c2ccc3c(c2)OCCO3)cs1 ... 38.3
CC(C)(C)OC(=O)N[C@@H](Cc1ccc(NS(=O)(=O)O)cc1)c1nc(CO)cs1 ... 31.6
CC(=O)N[C@@H](Cc1ccccc1)C(=O)N[C@@H](Cc1ccc(NS(=O)(=O)O)cc1)c1nc(C(C)(C)C)cs1 ... 1.52

[I] CCc1csc([C@H](Cc2ccc(NS(=O)(=O)O)cc2)NC(=O)[C@H](CC(C)C)NC(=O)OC)n1
[II] CCc1csc([C@H](Cc2ccc(NS(=O)(=O)O)cc2)NC(=O)Cc2ccccc2)n1
Response body: label of entry with the larger IC50; valid values I , II . API: response body contains the label of the selected item. II

###

pIC50: −log10 of the molar value.
// HPTPβ (Homo sapiens) pIC50 records
observation.type: pIC50

COC(=O)N[C@@H](Cc1ccccc1)C(=O)N[C@@H](Cc1ccc(NS(=O)(=O)O)cc1)c1nc(C)c(C)s1 ... 9.00
COC(=O)N[C@@H](Cc1ccccc1)C(=O)N[C@@H](Cc1ccc(NS(=O)(=O)O)cc1)c1nc2c(s1)CCCC2 ... 9.40
Cc1sc([C@H](Cc2ccc(NS(=O)(=O)O)cc2)NC(=O)C(C)(C)C)nc1-c1ccccc1 ... 7.01
CC(C)(C)C(=O)N[C@@H](Cc1ccc(NS(=O)(=O)O)cc1)c1nc(-c2ccc(-c3ccccc3)cc2)cs1 ... 6.42

[a] COc1cccc(-c2csc([C@H](Cc3ccc(NS(=O)(=O)O)cc3)NC(=O)C(C)(C)C)n2)c1
[b] CC(=O)N[C@@H](Cc1ccccc1)C(=O)N[C@@H](Cc1ccc(NS(=O)(=O)O)cc1)c1nc(-c2ccsc2)cs1
[c] COC(=O)N[C@@H](Cc1ccccc1)C(=O)N[C@@H](Cc1ccc(NS(=O)(=O)O)cc1)c1nccs1
Arrange these 3 molecules in increasing order of pIC50. Answer by writing out the labels in the requested order. a, c, b

###

# assay.target: PTP1B (Homo sapiens, UniProt P18031)
# experimental.protocol: PTP1B inhibition (IC50)
# Assay type: biochemical
pIC50: −log10 of the molar value.
observation.type: pIC50

CCc1nc([C@H](Cc2ccc(NS(=O)(=O)O)cc2)NC(=O)[C@H](Cc2ccccc2)NC(=O)OC)cs1 ... 6.00
COCc1csc([C@H](Cc2ccc(NS(=O)(=O)O)cc2)NC(=O)[C@H](Cc2ccccc2)NC(=O)OC)n1 ... 6.19
Cc1csc([C@H](Cc2ccc(NS(=O)(=O)O)cc2)NC(=O)C(C)(C)C)n1 ... 4.30
